Values from patent US10925971B2

Molecular target: T1, monkey PRLR on HEK293/mfPRLR cells (Macaca fascicularis, UniProt A0A2K5WXK1)
T1 construct: HA; expressed in transfected cells; host or cells: HEK293
T1 sequence (A0A2K5WXK1 25-619): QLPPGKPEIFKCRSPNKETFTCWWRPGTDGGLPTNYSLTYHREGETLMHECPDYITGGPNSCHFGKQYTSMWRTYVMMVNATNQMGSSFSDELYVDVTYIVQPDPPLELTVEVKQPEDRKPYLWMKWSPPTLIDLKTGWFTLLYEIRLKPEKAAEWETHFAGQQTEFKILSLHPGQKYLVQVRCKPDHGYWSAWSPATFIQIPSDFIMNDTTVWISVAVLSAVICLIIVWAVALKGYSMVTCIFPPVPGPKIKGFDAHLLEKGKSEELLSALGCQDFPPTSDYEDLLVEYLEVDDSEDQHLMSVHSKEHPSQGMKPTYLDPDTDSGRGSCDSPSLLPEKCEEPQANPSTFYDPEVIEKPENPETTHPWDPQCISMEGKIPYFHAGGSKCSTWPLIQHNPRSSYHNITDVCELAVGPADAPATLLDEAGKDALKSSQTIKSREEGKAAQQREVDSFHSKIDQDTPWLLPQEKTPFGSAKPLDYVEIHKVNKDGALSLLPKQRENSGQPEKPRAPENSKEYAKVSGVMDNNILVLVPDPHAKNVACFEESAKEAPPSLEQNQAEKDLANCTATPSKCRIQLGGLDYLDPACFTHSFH
Experiment: FACS cell surface binding
attribute-measured: FACS Cell Binding (Fold Above Background)
Give bare numbers, in Fold Above Background.

# molecule, FACS Cell Binding / Fold Above Background
measured = [
    ("H1H6803P: fully human anti-PRLR antibody, human IgG1 Fc; HCVR/LCVR SEQ ID NOs 226/234 (antibody, V domains shown) VH: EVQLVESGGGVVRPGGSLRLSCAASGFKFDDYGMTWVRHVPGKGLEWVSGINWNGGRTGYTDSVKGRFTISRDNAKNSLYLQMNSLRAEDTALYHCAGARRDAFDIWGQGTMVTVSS VL: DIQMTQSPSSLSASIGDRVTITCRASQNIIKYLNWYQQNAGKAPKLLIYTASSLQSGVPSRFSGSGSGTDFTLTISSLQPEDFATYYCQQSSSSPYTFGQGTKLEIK", 28),
]

Here is the next item to consider.
In: State the recorded FACS Cell Binding for this entry: H1H6960N: anti-PRLR antibody, human IgG1 Fc form of H2M6960N of Table 1; HCVR/LCVR SEQ ID NOs 322/330 (antibody, V domains shown, human IgG1 Fc) VH: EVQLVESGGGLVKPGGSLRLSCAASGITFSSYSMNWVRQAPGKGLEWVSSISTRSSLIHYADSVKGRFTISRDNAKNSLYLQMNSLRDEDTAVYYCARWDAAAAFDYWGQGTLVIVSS VL: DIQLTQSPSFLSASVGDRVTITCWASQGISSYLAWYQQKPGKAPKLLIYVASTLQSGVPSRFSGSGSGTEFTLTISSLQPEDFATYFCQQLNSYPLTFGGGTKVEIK
Out: 23
